Data origin: ChEMBL document CHEMBL1139625

protocol.notes: Inhibitory constant towards 5-hydroxytryptamine 2C receptor (5-HT2C)
Listed here are compounds together with their documented Log Ki.
// response body must contain only the number

The cases that follow already have their Log Ki on record.
>  <compound>
COc1ccccc1N1CCN(CCC2CC(=O)c3ccccc3C2)CC1 (stereo unspecified)

>  <Log Ki>
-6.35

$$$$
>  <compound>
COc1ccc2c(c1)C(=O)CC(CCN1CCC3(CC1)NC(=O)NC3=O)C2 (stereo unspecified)

>  <Log Ki>
-6.9

$$$$
>  <compound>
O=C1NC(=O)C2(CCN(CCC3CC(=O)c4ccccc4C3)CC2)N1 (stereo unspecified)

>  <Log Ki>
-7.05

$$$$

Moving on to the next compound.
Data request, read-out Log Ki, for COc1ccc2c(c1)C(=O)CC(CCN1CCC(c3noc4cc(F)ccc34)CC1)C2 (stereo unspecified)
-6.89
